// endpoint Kd / system UniProt:Q96SW2
Readout Kind: Kd (nM)

{"Structure": "CNC(=O)c1ccc2c(c1)nc(Cc1ccccc1OC)n2-c1ccc2[nH]c(=O)[nH]c2c1", "Readout Kind": "Kd", "Measured Result": 22}
{"Structure": "CNC(=O)c1ccc2c(c1)nc(-c1cc(-c3cncn3C)nc3ccccc13)n2-c1ccc2[nH]c(=O)[nH]c2c1", "Readout Kind": "Kd", "Measured Result": 28}
{"Structure": "CCc1nc2cc(C(=O)NCCCCCNC(=O)C[C@@H]3N=C(c4ccc(Cl)cc4)c4c(sc(C)c4C)-n4c(C)nnc43)ccc2n1-c1ccc2[nH]c(=O)[nH]c2c1", "Readout Kind": "Kd", "Measured Result": 55}
{"Structure": "CC(=O)N1CCC(N(C)C(=O)c2ccc3[nH]c(=O)[nH]c3c2)CC1", "Readout Kind": "Kd", "Measured Result": 4}

###

Molecular target: hCereblon(M1-L442)_hDDB1(M1-H1140) (Homo sapiens (Human))
pKd: −log10 of the molar value.
Each record here notes measured pKd.
Readout Kind: pKd

{"Structure": "COC(=O)c1cccc2c1CCCN2C(=O)Nc1ccc2[nH]c(=O)[nH]c2c1", "Measured Result": 7.07}
{"Structure": "O=C1c2ccc(Br)cc2CN1c1ccc2[nH]c(=O)[nH]c2c1", "Measured Result": 7.54}
{"Structure": "Cc1ccccc1-c1ccccc1C(=O)Nc1ccc2[nH]c(=O)[nH]c2c1", "Measured Result": 6.14}
{"Structure": "O=C(Nc1ccc2[nH]c(=O)[nH]c2c1)N1CCN(Cc2ccc(Cl)cc2)CC1", "Measured Result": 8.15}
{"Structure": "CCOC(=O)c1ccc2c(c1)CN(c1ccc3[nH]c(=O)[nH]c3c1)C2=O", "Measured Result": 7.74}

###

Molecular target: hCereblon(M1-L442)_hDDB1(M1-H1140) (Homo sapiens (Human), UniProt Q96SW2)
Sequence (Q96SW2 whole entry): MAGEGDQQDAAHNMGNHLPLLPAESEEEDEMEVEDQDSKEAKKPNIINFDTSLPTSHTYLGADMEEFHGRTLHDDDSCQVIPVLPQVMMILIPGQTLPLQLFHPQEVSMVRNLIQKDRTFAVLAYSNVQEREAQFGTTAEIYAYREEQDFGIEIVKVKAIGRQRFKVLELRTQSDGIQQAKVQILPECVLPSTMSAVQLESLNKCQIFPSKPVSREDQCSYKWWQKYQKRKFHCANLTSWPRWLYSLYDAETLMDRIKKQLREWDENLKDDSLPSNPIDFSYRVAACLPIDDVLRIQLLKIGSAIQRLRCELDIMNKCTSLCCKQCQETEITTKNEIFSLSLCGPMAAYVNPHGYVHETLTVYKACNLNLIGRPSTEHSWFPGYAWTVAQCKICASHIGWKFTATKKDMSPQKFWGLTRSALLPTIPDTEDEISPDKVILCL
Sequence (Q16531 whole entry partner): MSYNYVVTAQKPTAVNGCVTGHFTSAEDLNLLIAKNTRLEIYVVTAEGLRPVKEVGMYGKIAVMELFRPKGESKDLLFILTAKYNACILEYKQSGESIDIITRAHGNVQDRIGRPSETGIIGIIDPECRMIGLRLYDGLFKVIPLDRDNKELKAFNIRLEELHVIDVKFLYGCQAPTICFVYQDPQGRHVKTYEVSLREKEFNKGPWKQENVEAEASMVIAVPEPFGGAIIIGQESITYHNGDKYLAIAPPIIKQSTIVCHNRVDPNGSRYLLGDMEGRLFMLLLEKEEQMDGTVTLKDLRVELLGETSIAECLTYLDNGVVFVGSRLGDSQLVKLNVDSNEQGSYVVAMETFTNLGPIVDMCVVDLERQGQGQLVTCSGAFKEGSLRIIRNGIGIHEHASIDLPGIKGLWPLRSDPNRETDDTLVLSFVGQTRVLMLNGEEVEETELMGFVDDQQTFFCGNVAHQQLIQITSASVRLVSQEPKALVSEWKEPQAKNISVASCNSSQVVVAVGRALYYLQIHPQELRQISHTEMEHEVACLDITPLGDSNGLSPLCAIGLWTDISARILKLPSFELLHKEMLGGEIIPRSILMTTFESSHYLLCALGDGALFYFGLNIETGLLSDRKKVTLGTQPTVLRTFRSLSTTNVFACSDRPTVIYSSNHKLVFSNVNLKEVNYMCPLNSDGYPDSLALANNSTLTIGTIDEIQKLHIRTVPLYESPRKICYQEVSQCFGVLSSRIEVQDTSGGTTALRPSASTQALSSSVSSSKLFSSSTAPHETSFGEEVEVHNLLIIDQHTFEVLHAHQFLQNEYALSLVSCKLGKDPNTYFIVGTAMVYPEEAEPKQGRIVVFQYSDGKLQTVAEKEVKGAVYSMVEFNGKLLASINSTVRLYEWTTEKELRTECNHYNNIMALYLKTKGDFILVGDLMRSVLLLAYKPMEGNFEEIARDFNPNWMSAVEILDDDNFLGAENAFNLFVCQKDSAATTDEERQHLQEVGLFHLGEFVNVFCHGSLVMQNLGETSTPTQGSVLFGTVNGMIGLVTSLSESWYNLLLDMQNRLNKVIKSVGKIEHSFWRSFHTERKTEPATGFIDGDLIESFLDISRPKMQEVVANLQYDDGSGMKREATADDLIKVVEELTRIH
pKd: −log10 of the molar value. Where a name gives a salt, the structure may show the parent alone.
Give YES when the value for pKd is at least 8. Give NO when it is less.

{"Compound": "CNC(=O)c1ccc2nc(C(C)C)n(-c3ccc4[nH]c(=O)[nH]c4c3)c2c1 [Example 30]", "Group": "YES"}
{"Compound": "CC(C)(C)OC(=O)N1CCc2c(C(=O)Nc3ccc4[nH]c(=O)[nH]c4c3)cccc21 [Example 143]", "Group": "NO"}
{"Compound": "O=C(NCc1ccccc1)Nc1ccc2[nH]c(=O)[nH]c2c1 [Example 94]", "Group": "YES"}
{"Compound": "CC(=O)N1CCC(NC(=O)c2ccc3[nH]c(=O)[nH]c3c2)CC1 [Example 23]", "Group": "YES"}
{"Compound": "COC(=O)c1ccc2c(c1)nc(-c1cc(-c3cncn3C)nc3ccccc13)n2-c1ccc2[nH]c(=O)[nH]c2c1 [Example 107]", "Group": "NO"}
{"Compound": "O=c1[nH]c2ccc(-n3cnc4ccccc43)cc2[nH]1 [Example 83]", "Group": "YES"}
{"Compound": "Cn1c(=O)n(C)c2cc(Nc3ccccc3[N+](=O)[O-])ccc21 [Example 49]", "Group": "NO"}
{"Compound": "CNC(=O)c1ccc2c(c1)nc(-c1cc(-c3cncn3C)nc3ccccc13)n2-c1ccc2c(c1)n(C)c(=O)n2C [Example 17]", "Group": "NO"}
{"Compound": "CNC(=O)c1ccc2c(c1)nc(C1(c3ccc(OC)cc3)CC1)n2-c1ccc2[nH]c(=O)[nH]c2c1 [Example 115]", "Group": "NO"}
{"Compound": "CC(=O)Nc1ccc(CC(=O)Nc2ccc3[nH]c(=O)[nH]c3c2)cc1 [Example 78]", "Group": "NO"}
{"Compound": "Nc1ccc2c(c1)CCN2c1ccc2[nH]c(=O)[nH]c2c1 [Example 140, hydrochloride]", "Group": "NO"}
{"Compound": "CC(=O)N1CCc2c(C(=O)Nc3ccc4[nH]c(=O)[nH]c4c3)cccc21 [Example 145]", "Group": "NO"}
{"Compound": "O=C1CCCN1c1ccc2[nH]c(=O)[nH]c2c1 [Example 33]", "Group": "NO"}
{"Compound": "Cc1ncc(-c2ccc3[nH]c(=O)[nH]c3c2)s1 [Example 21]", "Group": "YES"}
{"Compound": "CNC(=O)c1ccc2c(c1)nc(C1CCOCC1)n2-c1ccc2[nH]c(=O)[nH]c2c1 [Example 64]", "Group": "NO"}
{"Compound": "Cn1ccc(-c2cccc(NC(=O)c3ccc4[nH]c(=O)[nH]c4c3)c2)n1 [Example 130]", "Group": "NO"}

Data provenance: patent US11787802B2
